# IC50 (µM), cytotoxicity, Day 3, LNCaP cell culture per entry
Biological target: T1, soluble guanylyl cyclase alpha 1 (sGCα1) (UniProt Q02108 1-690)
T1 sequence (looked up): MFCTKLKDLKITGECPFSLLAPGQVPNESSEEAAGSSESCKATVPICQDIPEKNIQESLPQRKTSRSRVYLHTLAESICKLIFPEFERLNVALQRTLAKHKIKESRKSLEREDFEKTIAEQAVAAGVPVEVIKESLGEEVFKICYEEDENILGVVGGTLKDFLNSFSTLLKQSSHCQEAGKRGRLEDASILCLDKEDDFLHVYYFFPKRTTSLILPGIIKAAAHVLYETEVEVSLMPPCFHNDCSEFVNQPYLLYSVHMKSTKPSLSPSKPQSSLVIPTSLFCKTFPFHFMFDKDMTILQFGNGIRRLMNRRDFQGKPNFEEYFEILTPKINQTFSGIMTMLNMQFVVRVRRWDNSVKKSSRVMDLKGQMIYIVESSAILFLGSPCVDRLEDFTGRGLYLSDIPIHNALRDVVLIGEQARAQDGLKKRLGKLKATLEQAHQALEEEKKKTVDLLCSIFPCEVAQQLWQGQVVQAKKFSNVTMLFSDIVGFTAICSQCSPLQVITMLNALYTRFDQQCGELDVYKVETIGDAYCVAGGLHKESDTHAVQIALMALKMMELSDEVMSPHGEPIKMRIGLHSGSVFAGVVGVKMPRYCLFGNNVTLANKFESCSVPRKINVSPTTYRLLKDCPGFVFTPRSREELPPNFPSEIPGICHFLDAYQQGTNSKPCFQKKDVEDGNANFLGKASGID
Experiment: cell-based or functional assay
Ends that are not written are not given here.
Report the value in µM with no unit label.

Reference set (3 entries):
binder | outputUnit | measurement
FCAAFRRRRRRRR-NH2 [Peptide FF5-K3A-8R] | µM | 60
FCKAFPRRRRRRRR-NH2 [Peptide FP6-8R] | µM | 22
CKAFRRRRRRRR-NH2 [Peptide CF4-8R] | µM | 62

Please look at the following binder next.
get_value(item= FMKAFRRRRRRRR-NH2 [Peptide FF5-C2M-8R] , readout=IC50 (µM), cytotoxicity, Day 3, LNCaP cell culture) returns 90
